Biological target: T1, ST2 on the effector cells (KU812, KU812/NF-κB-1#, HUVEC, HMC-1) (human, UniProt Q01638 19-556)
T1 sequence (looked up): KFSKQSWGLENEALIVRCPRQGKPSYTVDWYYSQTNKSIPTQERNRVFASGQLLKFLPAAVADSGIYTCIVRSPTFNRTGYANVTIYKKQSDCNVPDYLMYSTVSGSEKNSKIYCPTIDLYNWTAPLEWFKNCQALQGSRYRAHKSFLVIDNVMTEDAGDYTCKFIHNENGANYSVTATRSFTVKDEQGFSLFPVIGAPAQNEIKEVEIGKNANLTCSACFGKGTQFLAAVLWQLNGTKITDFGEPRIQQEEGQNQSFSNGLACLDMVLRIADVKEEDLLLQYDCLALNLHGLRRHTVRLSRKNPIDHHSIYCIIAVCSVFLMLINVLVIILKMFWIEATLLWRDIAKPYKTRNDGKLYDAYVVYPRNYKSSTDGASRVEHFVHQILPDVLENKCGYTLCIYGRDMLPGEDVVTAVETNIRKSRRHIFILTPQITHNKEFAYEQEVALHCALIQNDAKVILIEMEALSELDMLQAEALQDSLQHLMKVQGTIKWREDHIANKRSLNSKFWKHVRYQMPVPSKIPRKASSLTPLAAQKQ
Assay: cell-based or functional assay
experimental-endpoint: IC50, inhibition of KU812-IL5 production promoted by reduced IL33 (µg/mL)
All answers are understood in µg/mL, so give the number only.

I would be grateful if you could share the reported IC50, inhibition of KU812-IL5 production promoted by reduced IL33 for 5887-41-H1L0 (antibody, human IgG4 S228P, kappa, V domains shown, Humanized antibody) VH: QVQLQESGPGLVKPSQTLSLTCTVSGYSITSDYAWDWIRQPPGKGLEWIGYIRYSGDTYYNPSLKSRVTISRDTSKNQFSLKLSSVTAADTAVYYCATTMMDTMDYWGQGTLVTVSS VL: DIVLTQSPASLAVSPGQRATITCRASKSVSTSGNSYMHWYQQKPGQPPKLLIYLASNLESGVPARFSGSGSGTDFTLTINPVEANDTANYYCQHSREFPLTFGQGTKLEIKR .
0.706

Same read-out for 5888-153-H0L1 (antibody, human IgG4 S228P, kappa, V domains shown, Humanized antibody) VH: QVQLVQSGAEVKKPGASVKVSCKASGYTFTDYELHWVRQAPGQGLEWMGTIDPETGDTVYNQKFKARVTMTRDTSTSTVYMELSSLRSEDTAVYYCARAFYNDYDDGFAYWGQGTLVTVSS VL: EIVMTQSPATLSLSPGERATLSCSVSSSVSYMHWYQQKPGQAPRRLIYDTSKLASGIPARFSGSGSGTDYTLTISSLEPEDAAVYYCQQWNSSPLTFGGGTKVEIKR ?
0.389

Same read-out for 5888-153-H3L2 (antibody, human IgG4 S228P, kappa, V domains shown, Humanized antibody) VH: QVQLVQSGAEVKKPGASVKVSCKASGYTFTDYELHWVRQAPGQGLEWMGTIDPETGDTVYNQKFKARVTMTADKSTSTAYMELSSLRSEDTAVYYCTRAFYNDYDDAFAYWGQGTLVTVSS VL: EIVMTQSPATLSLSPGERATLSCSVSSSVSYMHWYQQKPGQAPRRLIYDTSKLASGIPARFSGSGSGTDYTLTISSLEPEDAAVYYCQQWNTSPLTFGGGTKVEIKR ?
0.522
